Data origin, for the record: ChEMBL document CHEMBL1137014

# TEST_TARGET: Betaine--homocysteine S-methyltransferase 1 (Homo sapiens)
# Sequence (whole entry): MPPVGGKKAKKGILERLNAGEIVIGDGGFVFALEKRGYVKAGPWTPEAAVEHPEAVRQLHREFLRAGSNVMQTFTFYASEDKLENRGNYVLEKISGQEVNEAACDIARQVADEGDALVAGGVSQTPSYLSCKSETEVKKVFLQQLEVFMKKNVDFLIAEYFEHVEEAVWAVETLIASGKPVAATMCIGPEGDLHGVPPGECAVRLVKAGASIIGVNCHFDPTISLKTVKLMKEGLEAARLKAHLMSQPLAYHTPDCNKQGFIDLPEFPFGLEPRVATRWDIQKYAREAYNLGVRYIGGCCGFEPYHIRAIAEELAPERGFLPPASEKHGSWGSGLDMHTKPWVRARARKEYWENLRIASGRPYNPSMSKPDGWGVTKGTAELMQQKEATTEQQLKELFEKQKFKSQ
# MEASUREMENT_PROTOCOL: Inhibition of human recombinant BHMT expressed in Escherichia coli at 1 uM using 0.25 mM betaine and 0.1 mM DL-homocysteine as substrate
MEASURE_NAME: inhibition (%)
Use % as the unit, but write only the number.

Some entries whose results are on file:
INSERT INTO results (compound, quantitative_readout) VALUES
  ('NC(CC[Se]CCCCC(=O)O)C(=O)O (racemic)', 94.3),
  ('CN(CCCSCCC(N)C(=O)O)CC(=O)O (racemic)', 22.4),
  ('C[C@@H](CCSCC[C@@H](N)C(=O)O)CC(=O)O (racemic)', 97.8),
  ('C[N+](C)(CCSCCC(N)C(=O)O)CC(=O)[O-] (racemic)', 5.1),
  ('NC(CCSCSCCC(=O)O)C(=O)O (racemic)', 26.3);

query: Supply inhibition value. Item: CN(CCSCCC(N)C(=O)O)CC(=O)O (racemic)
result: 58.9

query: Recall and state the measured inhibition for C[N+](C)(CSCCC(N)C(=O)O)CC(=O)[O-] (racemic) .
result: 0

query: For the compound CC(C)(CCSCCC(N)C(=O)O)CC(=O)O (racemic) , give its measured inhibition value.
result: 98.1

query: Please give the documented inhibition of C[N+](C)(CCCSCCC(N)C(=O)O)CC(=O)[O-] (racemic)
result: 0

###

# TEST_TARGET: Betaine--homocysteine S-methyltransferase 1 (Homo sapiens, UniProt Q93088)
# MEASUREMENT_PROTOCOL: Binding affinity to human recombinant BHMT expressed in Escherichia coli by isothermal titration calorimetry
MEASURE_NAME: pKd
Please keep in mind that pKd is minus log10 of the molar concentration; only the number is needed.

query: Given the compound `CC(C)(CCSCC[C@H](N)C(=O)O)CC(=O)O` , write its reported pKd.
result: 7.29

###

# TEST_TARGET: Betaine--homocysteine S-methyltransferase 1 (Homo sapiens)
# Sequence (whole entry): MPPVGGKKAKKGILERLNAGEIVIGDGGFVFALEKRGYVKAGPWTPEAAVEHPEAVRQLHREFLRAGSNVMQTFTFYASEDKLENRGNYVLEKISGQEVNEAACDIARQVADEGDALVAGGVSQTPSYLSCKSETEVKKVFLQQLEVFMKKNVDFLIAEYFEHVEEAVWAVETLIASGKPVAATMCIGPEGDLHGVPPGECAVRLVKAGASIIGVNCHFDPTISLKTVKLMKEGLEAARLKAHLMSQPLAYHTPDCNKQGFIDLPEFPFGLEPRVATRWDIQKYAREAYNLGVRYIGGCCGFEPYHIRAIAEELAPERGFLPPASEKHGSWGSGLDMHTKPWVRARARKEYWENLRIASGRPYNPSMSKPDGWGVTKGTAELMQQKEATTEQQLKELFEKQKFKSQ
# MEASUREMENT_PROTOCOL: Inhibition of human recombinant BHMT expressed in Escherichia coli at 20 uM using 0.25 mM betaine and 0.1 mM DL-homocysteine as substrate
MEASURE_NAME: inhibition (%)
The reply should be a number in %, with the unit left off.

INSERT INTO measurements (molecule, quantitative_readout) VALUES
  ('NC(CCCCCCCC(=O)O)C(=O)O (racemic)', 2.11),
  ('C[N+](C)(CCCSCCC(N)C(=O)O)CC(=O)[O-] (racemic)', 3.3),
  ('C[C@H](NCCSCCC(N)C(=O)O)C(=O)O (mixture of isomers)', 19.8),
  ('NC(CCSCSCCC(=O)O)C(=O)O (racemic)', 97.6),
  ('NC(CC[Se]CCCCC(=O)O)C(=O)O (racemic)', 100);

Shifting focus to the molecule that follows.
query: Retrieve inhibition measured for NC(CCCSCCCC(=O)O)C(=O)O (racemic) and print it.
result: 5.4

###

List of IC50 values.
# TEST_TARGET: UniProt:Q93088
# Sequence (Q93088 whole entry): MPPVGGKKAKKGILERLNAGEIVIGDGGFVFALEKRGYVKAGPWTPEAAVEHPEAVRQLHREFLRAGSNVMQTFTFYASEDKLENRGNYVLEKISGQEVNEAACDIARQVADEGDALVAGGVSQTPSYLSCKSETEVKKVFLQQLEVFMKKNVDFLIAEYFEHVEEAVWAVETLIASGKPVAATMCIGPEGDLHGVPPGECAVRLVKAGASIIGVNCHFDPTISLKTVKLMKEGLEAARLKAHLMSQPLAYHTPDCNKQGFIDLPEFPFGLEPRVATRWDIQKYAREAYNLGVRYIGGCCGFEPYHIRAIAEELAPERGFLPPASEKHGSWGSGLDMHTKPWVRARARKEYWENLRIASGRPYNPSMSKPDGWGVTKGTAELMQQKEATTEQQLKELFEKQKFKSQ
# MEASUREMENT_PROTOCOL: Inhibition of human recombinant BHMT expressed in Escherichia coli using 2 mM betaine and 1 mM DL-homocysteine as substrate
Just the number plus its unit, please.

INSERT INTO assay_data (molecule, result) VALUES
  ('NC(CCSCSCCC(=O)O)C(=O)O (racemic)', '3260 nM'),
  ('CC(C)(CCSCCC(N)C(=O)O)CC(=O)O (racemic)', '84 nM'),
  ('CC(C)(CCSCC[C@H](N)C(=O)O)CC(=O)O', '64 nM'),
  ('NC(CC[Se]CCCCC(=O)O)C(=O)O (racemic)', '649 nM'),
  ('C[C@@H](CCSCC[C@@H](N)C(=O)O)CC(=O)O (racemic)', '139 nM'),
  ('CC(C)(CCSCC[C@@H](N)C(=O)O)CC(=O)O', '701 nM');

Query molecule follows.
query: Check the records and state IC50 for CN(CCSCCC(N)C(=O)O)CC(=O)O (racemic)
result: 2500 nM

###

# TEST_TARGET: Betaine--homocysteine S-methyltransferase 1 (Homo sapiens) (UniProt Q93088)
# MEASUREMENT_PROTOCOL: Inhibition of human recombinant BHMT expressed in Escherichia coli at 20 uM using 0.25 mM betaine and 0.1 mM DL-homocysteine as substrate
MEASURE_NAME: inhibition
# answer = value followed by unit

INSERT INTO results (compound, test_target, measure_name, result) VALUES
  ('NC(CCSCCNCC(=O)O)C(=O)O (racemic)', 'Betaine--homocysteine S-methyltransferase 1 (Homo sapiens) (UniProt Q93088)', 'inhibition', '37.1%'),
  ('NC(CCSSCCCC(=O)O)C(=O)O (racemic)', 'Betaine--homocysteine S-methyltransferase 1 (Homo sapiens) (UniProt Q93088)', 'inhibition', '19.1%'),
  ('C[C@@H](NCCSCCC(N)C(=O)O)C(=O)O (mixture of isomers)', 'Betaine--homocysteine S-methyltransferase 1 (Homo sapiens) (UniProt Q93088)', 'inhibition', '15.5%'),
  ('CC(C)(CCSCCC(N)C(=O)O)CC(=O)O (racemic)', 'Betaine--homocysteine S-methyltransferase 1 (Homo sapiens) (UniProt Q93088)', 'inhibition', '100%'),
  ('CN(CCSCCC(N)C(=O)O)CC(=O)O (racemic)', 'Betaine--homocysteine S-methyltransferase 1 (Homo sapiens) (UniProt Q93088)', 'inhibition', '98.5%');

query: Fill in reported inhibition for this entry: NC(CCOCCCCC(=O)O)C(=O)O (racemic)
result: 9.8%

###

Each record here notes measured inhibition.
# TEST_TARGET: Betaine--homocysteine S-methyltransferase 1 (Homo sapiens) (UniProt Q93088)
# Sequence (whole entry): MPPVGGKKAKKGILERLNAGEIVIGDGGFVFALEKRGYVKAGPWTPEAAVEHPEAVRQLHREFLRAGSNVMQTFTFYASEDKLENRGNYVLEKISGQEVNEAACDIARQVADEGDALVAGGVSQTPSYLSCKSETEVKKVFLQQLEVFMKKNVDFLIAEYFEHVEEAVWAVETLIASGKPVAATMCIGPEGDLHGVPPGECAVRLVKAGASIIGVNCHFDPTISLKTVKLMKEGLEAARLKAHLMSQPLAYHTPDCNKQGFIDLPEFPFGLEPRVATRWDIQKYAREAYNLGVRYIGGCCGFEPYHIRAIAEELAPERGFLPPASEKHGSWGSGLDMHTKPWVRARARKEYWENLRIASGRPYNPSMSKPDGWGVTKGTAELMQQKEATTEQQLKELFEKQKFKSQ
# MEASUREMENT_PROTOCOL: Inhibition of human recombinant BHMT expressed in Escherichia coli at 20 uM using 0.25 mM betaine and 0.1 mM DL-homocysteine as substrate

These recorded examples may help you get a feel for the data.
INSERT INTO results (compound, result) VALUES
  ('C[C@@H](CCSCC[C@@H](N)C(=O)O)CC(=O)O (racemic)', '100%'),
  ('C[N+](C)(CSCCC(N)C(=O)O)CC(=O)[O-] (racemic)', '0%'),
  ('CN(CCCSCCC(N)C(=O)O)CC(=O)O (racemic)', '79%'),
  ('NC(CCSCCNCCC(=O)O)C(=O)O (racemic)', '0%');

Moving on to another compound below.
query: Enter recorded inhibition with Betaine--homocysteine S-methyltransferase 1 (Homo sapiens) (UniProt Q93088) for C[N+](C)(CCSCCC(N)C(=O)O)CC(=O)[O-] (racemic) here.
result: 23.8%
